Experiment: cytosolic pH regulators acting via V-ATPase – S. cerevisiae, pHLuorin, HTS validation (AID 504600);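 note: plate controls were DMSO for no effect and reference compound for full effect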
Details: V-ATPase proton transport, at 10 µM, stronger effect = higher value
Activity calls are given as the source filed them. Cut-off read from the data, not from the text of the source: active = response above about 15%; inactive = the rest.
observed_property: response

Task: For the compound shown here, `CC(C)CCn1c(N2CCc3ccccc3C2)nc2c1c(=O)[nH]c(=O)n2C` , give the reported response.
Output: 2.15% (inactive)

Task: And for CC12CCC(C(=O)NNc3ccccc3)(C(=O)C1=O)C2(C)C (stereo unspecified) ?
Output: -0.25% (inactive)

Task: For `Cc1ccc(-c2nnc(-c3ccc4c(c3)OCO4)o2)cc1` then?
Output: 2.28% (inactive)
